Every entry's value here was drawn from patent US10233165B2.

biological target: Human recombinant MAO A (Homo sapiens, UniProt P21397); construct: made in house; host or cells: Pichia pastoris; experiment: Bioluminescent-coupled assay for monoamine oxidases (MAO-Glo), MAO-A; assay type: biochemical; conditions: 50 nM MAO-A, 15 min preincubation; read-out: MAO-A inhibition IC50
Sequence (P21397 whole entry): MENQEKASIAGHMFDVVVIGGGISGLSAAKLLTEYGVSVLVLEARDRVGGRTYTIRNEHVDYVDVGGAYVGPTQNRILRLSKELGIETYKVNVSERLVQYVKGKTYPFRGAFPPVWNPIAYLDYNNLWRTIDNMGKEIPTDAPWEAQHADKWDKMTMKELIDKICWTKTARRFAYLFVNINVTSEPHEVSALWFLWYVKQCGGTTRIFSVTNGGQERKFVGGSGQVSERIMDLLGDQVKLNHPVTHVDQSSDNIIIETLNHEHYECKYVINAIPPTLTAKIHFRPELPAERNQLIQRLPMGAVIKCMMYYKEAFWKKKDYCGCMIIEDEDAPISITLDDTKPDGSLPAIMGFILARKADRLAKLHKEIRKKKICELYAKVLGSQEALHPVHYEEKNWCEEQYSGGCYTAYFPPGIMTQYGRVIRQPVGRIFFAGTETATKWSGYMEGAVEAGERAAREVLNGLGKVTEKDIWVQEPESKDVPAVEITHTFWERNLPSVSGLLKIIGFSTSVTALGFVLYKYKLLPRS
value.kind: IC50

Task: Please report the recorded IC50 for N[C@@H]1C[C@H]1c1ccc(NC(=O)c2ccc(-c3ccccc3)cc2)cc1 (relative stereo) [Example 5e, reference compound] .
Result: 0.054 µM

====

IC50 (MAO-A)/ IC50 (LSD1) for assorted molecules
target: Human recombinant MAO A (Homo sapiens, UniProt P21397); construct: made in house; host or cells: Pichia pastoris; experiment: Bioluminescent-coupled assay for monoamine oxidases (MAO-Glo), MAO-A; format: biochemical; conditions: ratio; 15 min preincubation of compound with enzyme
Where a name gives a salt, the structure may show the parent alone.
Could you keep your reply to the number by itself?

Task: Item N[C@H]1C[C@@H]1c1ccc(NC(=O)c2cccc(N3CCOC3=O)c2)cc1 [Example 13, Hydrochloride] with Human recombinant MAO A (Homo sapiens, UniProt P21397) - IC50 (MAO-A)/ IC50 (LSD1)?
Result: 2.67

Task: Item N[C@@H]1C[C@H]1c1ccc(NC(=O)c2ccccc2)cc1 (relative stereo) [Example 5b, reference compound] with Human recombinant MAO A (Homo sapiens, UniProt P21397) - IC50 (MAO-A)/ IC50 (LSD1)?
Result: 1.56

Task: Item CN1CCN(c2ccc(C(=O)Nc3ccc([C@@H]4C[C@H]4N)cc3)cc2NC(=O)OCc2ccccc2)CC1 (relative stereo) [Example 7, Dihydrochloride] with Human recombinant MAO A (Homo sapiens, UniProt P21397) - IC50 (MAO-A)/ IC50 (LSD1)?
Result: 11.2

Further cases:
Task: Item CN1CCN(c2cc(C(=O)Nc3ccc([C@@H]4C[C@H]4N)cc3)ccc2NC(=O)OCc2ccccc2)CC1 (relative stereo) [Example 6, Dihydrochloride] with Human recombinant MAO A (Homo sapiens, UniProt P21397) - IC50 (MAO-A)/ IC50 (LSD1)?
Result: 15.3

Task: Item N[C@@H]1C[C@H]1c1ccc(NC(=O)c2ccc(N3CCOCC3)c(NC(=O)OCc3ccccc3)c2)cc1 (relative stereo) [Example 9, hydrochloride] with Human recombinant MAO A (Homo sapiens, UniProt P21397) - IC50 (MAO-A)/ IC50 (LSD1)?
Result: 3.17
